system: human bitter receptor TAS2R39 (Homo sapiens)
Construct: expressed in transfected cells; host or cells: HEK293 (tetracycline/doxycycline-inducible expression; blasticidin, geneticin and hygromycin selection)
Sequence (P59534 whole entry): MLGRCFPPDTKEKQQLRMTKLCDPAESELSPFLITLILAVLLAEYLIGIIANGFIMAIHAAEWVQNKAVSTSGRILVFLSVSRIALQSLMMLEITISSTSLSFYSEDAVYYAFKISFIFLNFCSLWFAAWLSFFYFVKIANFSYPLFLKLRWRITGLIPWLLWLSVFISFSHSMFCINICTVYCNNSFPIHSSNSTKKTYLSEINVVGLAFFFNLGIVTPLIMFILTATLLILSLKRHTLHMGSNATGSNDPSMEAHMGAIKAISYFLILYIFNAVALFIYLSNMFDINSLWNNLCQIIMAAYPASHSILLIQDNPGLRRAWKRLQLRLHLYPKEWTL
test-details: Inhibition of ECG stimulation of TAS2R39, intracellular calcium (Fluo4-AM fluorescence) assay
Format: cell-based
condition-notes: HEK293 cells expressing TAS2R39; test solution 0.5 mM ECG and 10 mM test compound in Tyrodes buffer; percentage reduction of ΔF vs ECG alone
endpoint-label: % inhibition of TAS2R39 (%)
Answers are plain numbers, in %.

Query string: Consider the molecule COc1ccc(CCC(=O)O)cc1OC . State its measured % inhibition of TAS2R39.
Result string: 35

Query string: Consider the molecule COc1cc(CC(=O)O)cc(OC)c1OC [3,4,5-trimethoxyphenylacetic acid, reference compound] . State its measured % inhibition of TAS2R39.
Result string: 25

Query string: Consider the molecule COc1cccc(C(=O)O)c1O [2-hydroxy-3-methoxybenzoic acid, reference compound] . State its measured % inhibition of TAS2R39.
Result string: 25

Your task in this section: give % inhibition of TAS2R39 for each listed record.
1. O=C(O)Cc1ccccc1 [Phenylacetic acid, reference compound]
2. COc1cc(C(=O)O)cc(OC)c1OC [3,4,5-trimethoxybenzoic acid, reference compound]
3. COc1cc(/C=C/C(=O)O)cc(OC)c1 [3,5-dimethoxycinnamic acid, reference compound]
4. O=C(O)c1cc(O)c(O)c(O)c1 [3,4,5-trihydroxybenzoic acid, reference compound]

Result string:
1: 5; 2: 20; 3: 20; 4: 25

Your task in this section: give % inhibition of TAS2R39 for each listed record.
1. COc1ccc(C(=O)O)cc1OC [3,4-dimethoxybenzoic acid, reference compound]
2. COc1ccccc1C(=O)O [2-methoxybenzoic acid, reference compound]
3. O=C(O)CCc1ccc(O)cc1 [3-(4-hydroxyphenyl) propanoic acid, reference compound]

Result string:
1. 10
2. 10
3. 25
